// data source = paper PMC8185074

- assay.system: HDAC2 (Homo sapiens)
- Construct: purchased Reaction Biology Corporation (assay run by the CRO)
- procedure.details: Initial HDAC2 IC50 estimate (BPS Biosciences HDAC fluorogenic assay kit)
- Format: biochemical
- condition.label: Supplementary Dataset 2; read-out: HDAC2 activity (initial activity)
Peptide text beside a SMILES is read from it.
readout.label: pIC50
Hey, just a heads up that pIC50 is the negative log base 10 of the concentration in molar.

Find the measured pIC50 of N=C(N)NCCC[C@H]1NC(=O)[C@H]2CCCN2C(=O)[C@@H](Cc2c[nH]cn2)NC(=O)[C@H](Cc2ccc(O)cc2)NC(=O)[C@H](CCCCCS)NC(=O)[C@H](CCc2ccccc2)NC(=O)[C@H](CCCCN)NC1=O [des3.2.5, SHA-Tyr-dHis-dPro-dArg-Lys-C27] (HELM PEPTIDE1{K.[O=C([C@H](CCc1ccccc1)N[*:1])[*:2]].[O=C([C@H](CCCCCS)N[*:1])[*:2]].Y.[dH].[dP].[dR]}$PEPTIDE1,PEPTIDE1,1:R1-7:R2$$$V2.0) with HDAC2 (Homo sapiens) as test system. 7.02

GET pIC50 | system: HDAC2 (Homo sapiens) | item: N=C(N)NCCC[C@@H]1NC(=O)[C@H](Cc2c[nH]c3ccccc23)NC(=O)[C@H](CC(=O)O)NC(=O)[C@@H](CO)NC(=O)[C@H](Cc2c[nH]c3ccccc23)NC(=O)[C@H](CCCCCS)NC(=O)[C@H](CCC(N)=O)NC1=O [des4.1.0, SHA-Trp-dSer-Asp-Trp-Arg-Gln] (HELM PEPTIDE1{D.W.R.Q.[O=C([C@H](CCCCCS)N[*:1])[*:2]].W.[dS]}$PEPTIDE1,PEPTIDE1,1:R1-7:R2$$$V2.0) 7.00

Would you please give the reported pIC50 of N=C(N)NCCC[C@H]1NC(=O)[C@@H]2CCCN2C(=O)[C@H](CO)NC(=O)[C@@H](Cc2c[nH]cn2)NC(=O)[C@H](CCCCCS)NC(=O)[C@H](CCCCN)NC(=O)[C@H](Cc2ccc(O)cc2)NC(=O)[C@H]2CCCN2C(=O)[C@@H](CCC(N)=O)NC1=O [des3.1.0, SHA-dHis-Ser-Pro-dArg-dGln-dPro-Tyr-Lys] (HELM PEPTIDE1{K.[O=C([C@H](CCCCCS)N[*:1])[*:2]].[dH].S.P.[dR].[dQ].[dP].Y}$PEPTIDE1,PEPTIDE1,1:R1-9:R2$$$V2.0) with HDAC2 (Homo sapiens)? 5.85

====

I'd appreciate it if you could supply 2-Selectivity: fold potency for HDAC2 over HDAC6 values for the items below.
- assay.system: HDAC2 (Homo sapiens, UniProt Q92769)
- Construct: purchased Reaction Biology Corporation (assay run by the CRO)
- Sequence (Q92769 whole entry): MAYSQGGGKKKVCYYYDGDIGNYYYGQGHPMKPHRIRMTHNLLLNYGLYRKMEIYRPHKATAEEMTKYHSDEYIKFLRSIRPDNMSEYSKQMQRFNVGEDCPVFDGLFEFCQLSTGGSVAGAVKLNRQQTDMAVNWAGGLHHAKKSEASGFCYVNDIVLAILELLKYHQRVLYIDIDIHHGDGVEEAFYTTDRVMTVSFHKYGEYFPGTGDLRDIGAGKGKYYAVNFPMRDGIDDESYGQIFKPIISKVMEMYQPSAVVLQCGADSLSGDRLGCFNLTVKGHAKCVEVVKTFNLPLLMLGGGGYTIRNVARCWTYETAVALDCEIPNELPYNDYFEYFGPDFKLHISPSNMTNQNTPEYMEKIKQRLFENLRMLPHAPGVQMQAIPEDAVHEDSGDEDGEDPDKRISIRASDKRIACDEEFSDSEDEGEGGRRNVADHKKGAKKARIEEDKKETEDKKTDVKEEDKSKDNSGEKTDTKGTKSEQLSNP
- procedure.details: HDAC2 inhibition, full IC50 measurement (Reaction Biology; fluorogenic p53 peptide RHKK(Ac)AMC)
- Type: biochemical
Peptide text beside a SMILES is read from it.
Please state the figure in fold; there is no need to write the unit.

Let me know recorded 2-Selectivity: fold potency for HDAC2 over HDAC6 for NCCCC[C@@H]1NC(=O)[C@@H](CC(N)=O)NC(=O)[C@H]2CCCN2C(=O)[C@@H](Cc2c[nH]cn2)NC(=O)[C@H](Cc2ccc(O)cc2)NC(=O)[C@H](CCCCCS)NC(=O)[C@H](CCc2ccccc2)NC1=O [des3.2.4, SHA-Tyr-dHis-dPro-dAsn-Lys-C27] (HELM PEPTIDE1{K.[O=C([C@H](CCc1ccccc1)N[*:1])[*:2]].[O=C([C@H](CCCCCS)N[*:1])[*:2]].Y.[dH].[dP].[dN]}$PEPTIDE1,PEPTIDE1,1:R1-7:R2$$$V2.0) , thanks. 0.43

Provide only the value of recorded 2-Selectivity: fold potency for HDAC2 over HDAC6 for N=C(N)NCCC[C@H]1NC(=O)[C@H]2CCCN2C(=O)[C@@H](Cc2c[nH]cn2)NC(=O)[C@H](Cc2ccc(O)cc2)NC(=O)[C@H](CCCCCS)NC(=O)[C@H](CCc2ccccc2)NC(=O)[C@H](CCCCN)NC1=O [des3.2.5, SHA-Tyr-dHis-dPro-dArg-Lys-C27] (HELM PEPTIDE1{K.[O=C([C@H](CCc1ccccc1)N[*:1])[*:2]].[O=C([C@H](CCCCCS)N[*:1])[*:2]].Y.[dH].[dP].[dR]}$PEPTIDE1,PEPTIDE1,1:R1-7:R2$$$V2.0) 0.40

====

- assay.system: HDAC3 (Homo sapiens)
- Construct: purchased Reaction Biology Corporation (assay run by the CRO)
- procedure.details: HDAC3 inhibition, full IC50 measurement (Reaction Biology; fluorogenic p53 peptide RHKK(Ac)AMC)
- Assay type: biochemical
- condition.label: Conc. 4.12E-08 M, t1
Peptide text beside a SMILES is read from it.
Kindly supply the reported HDAC3 activity raw data (signal) values for the records listed here.
Enter a number only.

Give recorded HDAC3 activity raw data (signal). NCCCC[C@@H]1NC(=O)[C@@H]2CCCN2C(=O)[C@H](CC(N)=O)NC(=O)[C@H](CCCCCS)NC(=O)CNC(=O)[C@H](Cc2c[nH]c3ccccc23)NC(=O)[C@@H](CCCCN)NC(=O)[C@H](CCC(N)=O)NC1=O [des1.1.0, SHA-Asn-Pro-Lys-Gln-dLys-Trp-Gly] (HELM PEPTIDE1{G.[O=C([C@H](CCCCCS)N[*:1])[*:2]].N.P.K.Q.[dK].W}$PEPTIDE1,PEPTIDE1,1:R1-8:R2$$$V2.0) 761011

Give me measured HDAC3 activity raw data (signal), please, for this compound: CSCC[C@H]1NC(=O)[C@@H](CO)NC(=O)[C@H](CC(N)=O)NC(=O)[C@H](CC(=O)O)NC(=O)[C@@H]([C@H](C)O)NC(=O)[C@H](Cc2c[nH]c3ccccc23)NC(=O)[C@H](CCCCCS)NC(=O)[C@H](CCCCN)NC(=O)[C@@H](CC(=O)O)NC1=O [des2.1.1, SHA-Trp-dThr-Asp-Asn-dSer-dMet-dAsp-Lys] (HELM PEPTIDE1{D.N.[dS].[dM].[dD].K.[O=C([C@H](CCCCCS)N[*:1])[*:2]].W.[dT]}$PEPTIDE1,PEPTIDE1,1:R1-9:R2$$$V2.0) 487885

Tell me HDAC3 activity raw data (signal) reported for C[C@H](O)[C@H]1NC(=O)[C@H](Cc2c[nH]c3ccccc23)NC(=O)[C@H](CCCCCS)NC(=O)[C@H](CCCCN)NC(=O)[C@@H](CC(=O)O)NC(=O)[C@@H](CCCCN)NC(=O)[C@@H](CO)NC(=O)[C@H](CC(N)=O)NC(=O)[C@H](CC(=O)O)NC1=O [des2.1.0, SHA-Trp-dThr-Asp-Asn-dSer-dLys-dAsp-Lys] (HELM PEPTIDE1{D.N.[dS].[dK].[dD].K.[O=C([C@H](CCCCCS)N[*:1])[*:2]].W.[dT]}$PEPTIDE1,PEPTIDE1,1:R1-9:R2$$$V2.0) 754531

====

- assay.system: HDAC3 (Homo sapiens, UniProt O15379)
- Construct: purchased Reaction Biology Corporation (assay run by the CRO)
- Sequence (O15379 whole entry): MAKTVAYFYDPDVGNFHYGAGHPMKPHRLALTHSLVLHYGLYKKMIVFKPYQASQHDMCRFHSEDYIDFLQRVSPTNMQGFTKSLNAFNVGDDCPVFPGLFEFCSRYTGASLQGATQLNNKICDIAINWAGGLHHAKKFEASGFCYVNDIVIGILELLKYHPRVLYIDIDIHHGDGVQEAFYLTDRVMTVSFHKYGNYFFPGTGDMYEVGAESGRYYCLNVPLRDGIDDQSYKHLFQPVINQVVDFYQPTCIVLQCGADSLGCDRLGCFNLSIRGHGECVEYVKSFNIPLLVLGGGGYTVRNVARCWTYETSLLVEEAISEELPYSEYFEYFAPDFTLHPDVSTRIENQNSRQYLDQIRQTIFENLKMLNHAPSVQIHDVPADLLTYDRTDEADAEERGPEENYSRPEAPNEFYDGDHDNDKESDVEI
- Sequence (Q9Y618 395-489 partner limits assumed): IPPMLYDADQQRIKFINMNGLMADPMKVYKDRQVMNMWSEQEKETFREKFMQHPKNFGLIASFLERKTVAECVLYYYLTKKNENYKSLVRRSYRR
- procedure.details: HDAC3 inhibition, full IC50 measurement (Reaction Biology; fluorogenic p53 peptide RHKK(Ac)AMC)
- Type: biochemical
- condition.label: Conc. 1.37E-08 M, t1
Peptide text beside a SMILES is read from it.
readout.label: HDAC3 activity raw data (signal)

Tell me its HDAC3 activity raw data (signal) given NCCCC[C@H]1NC(=O)[C@H](CCC(N)=O)NC(=O)[C@H](CCC(=O)O)NC(=O)[C@@H]2CCCN2C(=O)[C@H](CC(N)=O)NC(=O)[C@H](CCCCCS)NC(=O)CNC(=O)[C@H](Cc2c[nH]c3ccccc23)NC1=O [des1.1.1, SHA-Asn-Pro-Glu-Gln-dLys-Trp-Gly] (HELM PEPTIDE1{E.Q.[dK].W.G.[O=C([C@H](CCCCCS)N[*:1])[*:2]].N.P}$PEPTIDE1,PEPTIDE1,1:R1-8:R2$$$V2.0) as the entry. 834270

====

- assay.system: HDAC2 (Homo sapiens)
- Construct: purchased Reaction Biology Corporation (assay run by the CRO)
- procedure.details: HDAC2 inhibition, full IC50 measurement (Reaction Biology; fluorogenic p53 peptide RHKK(Ac)AMC)
- Assay type: biochemical
- condition.label: Conc. 1.11E-06 M, t2
Peptide text beside a SMILES is read from it.
readout.label: HDAC2 activity raw data (signal)
# output: bare number, no unit

Provide measured HDAC2 activity raw data (signal) value, entry: C[C@H](O)[C@H]1NC(=O)[C@H](Cc2c[nH]c3ccccc23)NC(=O)[C@H](CCCCCS)NC(=O)[C@H](CCCCN)NC(=O)[C@@H](CC(=O)O)NC(=O)[C@@H](CCCCN)NC(=O)[C@@H](CO)NC(=O)[C@H](CC(N)=O)NC(=O)[C@H](CC(=O)O)NC1=O [des2.1.0, SHA-Trp-dThr-Asp-Asn-dSer-dLys-dAsp-Lys] (HELM PEPTIDE1{D.N.[dS].[dK].[dD].K.[O=C([C@H](CCCCCS)N[*:1])[*:2]].W.[dT]}$PEPTIDE1,PEPTIDE1,1:R1-9:R2$$$V2.0) 55653

Give a short answer stating reported HDAC2 activity raw data (signal) for N=C(N)NCCC[C@H]1NC(=O)[C@@H]2CCCN2C(=O)[C@H](CO)NC(=O)[C@@H](Cc2c[nH]cn2)NC(=O)[C@H](CCCCCS)NC(=O)[C@H](CCCCN)NC(=O)[C@H](Cc2ccc(O)cc2)NC(=O)[C@H]2CCCN2C(=O)[C@@H](CCC(N)=O)NC1=O [des3.1.0, SHA-dHis-Ser-Pro-dArg-dGln-dPro-Tyr-Lys] (HELM PEPTIDE1{K.[O=C([C@H](CCCCCS)N[*:1])[*:2]].[dH].S.P.[dR].[dQ].[dP].Y}$PEPTIDE1,PEPTIDE1,1:R1-9:R2$$$V2.0) . 343376

Return the recorded HDAC2 activity raw data (signal) value; entry: NCCCC[C@@H]1NC(=O)[C@@H]2CCCN2C(=O)[C@H](CC(N)=O)NC(=O)[C@H](CCCCCS)NC(=O)CNC(=O)[C@H](Cc2c[nH]c3ccccc23)NC(=O)[C@@H](CCCCN)NC(=O)[C@H](CCC(N)=O)NC1=O [des1.1.0, SHA-Asn-Pro-Lys-Gln-dLys-Trp-Gly] (HELM PEPTIDE1{G.[O=C([C@H](CCCCCS)N[*:1])[*:2]].N.P.K.Q.[dK].W}$PEPTIDE1,PEPTIDE1,1:R1-8:R2$$$V2.0) 218492
